Task for the reader: assign each of the following molecules its reported pEC50.
molecular target: Gal4 DNA binding domain fused to the LBD of LXRβ in HEK293 cells (Homo sapiens (Human), UniProt P55055); assay: cell-based
Sequence (P55055 222-460 limits assumed): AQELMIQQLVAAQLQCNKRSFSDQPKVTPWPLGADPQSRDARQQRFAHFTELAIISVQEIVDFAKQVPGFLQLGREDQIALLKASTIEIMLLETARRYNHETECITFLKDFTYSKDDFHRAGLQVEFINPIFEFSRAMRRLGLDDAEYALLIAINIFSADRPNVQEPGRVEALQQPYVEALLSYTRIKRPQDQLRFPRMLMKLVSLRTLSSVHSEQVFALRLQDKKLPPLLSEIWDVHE
Remember, pEC50 is on a log scale: it is -log10 of the molar concentration.

Query :: Return the recorded pEC50 value; entry: CCOC(=O)c1cnc(N2CCN(c3ccc(-c4nnc(C)s4)c(S(C)(=O)=O)c3)C[C@H]2C(C)C)nc1C(F)(F)F [9-13]
Result :: 5.92

Query :: Return the recorded pEC50 value; entry: CC(C)[C@@H]1CN(c2ccc(CO)c(S(C)(=O)=O)c2)CCN1c1nc(C(F)(F)F)c(C(N)=O)s1 [17-35]
Result :: 6.79

Query :: Return the recorded pEC50 value; entry: C[C@](O)(c1ccc(CN2CCN(c3cccc(S(C)(=O)=O)c3)C[C@@H]2c2ccccc2)cc1)C(F)(F)F (single isomer, unassigned) [46-28]
Result :: 5.72

Query :: Return the recorded pEC50 value; entry: CC(C)[C@@H]1CN(c2ccc(CO)c(S(C)(=O)=O)c2)CCN1c1ccc(C(F)(F)F)nc1 [Cpd No 20-4]
Result :: 7.55

Query :: Return the recorded pEC50 value; entry: CC(C)[C@@H]1CN(c2ccc(F)c(S(C)(=O)=O)c2)CCN1c1ncc(CN2CC(O)C2)c(C(F)(F)F)n1 [15-4]
Result :: 6.74
